Source listed as ChEMBL document CHEMBL3228016.

Test system: Rattus norvegicus
Assay: Antiallergic activity in po dosed Sprague-Dawley rat passive cutaneous analphylaxis model assessed as inhibition of allergic response administered 10 mins prior to antigen challenge
Assay type: functional
Details: read-out: ID50 (the source's name)
Please go through the items and note down their ED50.
Answers are plain numbers, in mg/kg.

Study these solved cases before continuing.
- chemical_smiles: "CCOc1ccccc1-c1ncc(C(=O)O)c(=O)[nH]1"
  ED50 [mg/kg]: 0.5
- chemical_smiles: "O=C(O)c1cnc(-c2ccc(Cl)cc2)[nH]c1=O"
  ED50 [mg/kg]: 5
- chemical_smiles: "O=C(O)c1cnc(-c2cccc(C(F)(F)F)c2)[nH]c1=O"
  ED50 [mg/kg]: 33

// batch mode: one ED50 value per listed entry
1. CCOC(=O)c1cnc(-c2ccccc2OC(C)C)[nH]c1=O
2. CC(C)COc1ccccc1-c1ncc(C(=O)O)c(=O)[nH]1
3. CCSc1ccccc1-c1ncc(C(=O)O)c(=O)[nH]1

## Output
1: 2; 2: 0.5; 3: 25

// batch mode: one ED50 value per listed entry
1. CCCCOc1ccccc1-c1ncc(C(=O)O)c(=O)[nH]1
2. CCOC(=O)c1cnc(-c2ccccc2OCC(C)C)[nH]c1=O
3. CCCOc1ccc(OC)cc1-c1ncc(C(=O)O)c(=O)[nH]1

## Output
1. 0.5
2. 3
3. 0.3
